Test: Half life in Sprague- Dawley rat at 25 mg/kg, po incubation upto 24 hrs by LC-MS/MS analysis
Assay type: ADME, organism-based
Conditions: in vivo
Observed property: half-life (h)
Answer with a number only, understood to be in h.

Can you share its half-life? I mean this compound: CC(C)Oc1cc(NC(=O)N2CCCc3cc(CN4CCN(C)CC4=O)c(C=O)nc32)ncc1C#Cc1cccnc1 3.06

====

pIC50: −log10 of the molar value.
The following molecules each carry a recorded pIC50 for Fibroblast growth factor receptor 2 (Homo sapiens, UniProt P21802).

INSERT INTO results (molecular_string, result) VALUES
  ('CC(C)Oc1cc(NC(=O)N2CCCc3ccc(C=O)nc32)ncc1C#Cc1ccncc1', '< 5.00'),
  ('CC(C)CNc1cc(NC(=O)N2CCCc3ccc(C=O)nc32)ncc1C#Cc1ccccn1', '< 5.00'),
  ('COc1cc(C#Cc2cnc(NC(=O)N3CCCc4cc(CN5CCN(C)CC5=O)c(C=O)nc43)cc2OC(C)C)cc(OC)c1', '< 5.00'),
  ('COCCNc1cc(NC(=O)N2CCCc3ccc(C=O)nc32)ncc1C#N', '< 5.00'),
  ('COc1cccc(C#Cc2cnc(NC(=O)N3CCCc4ccc(C=O)nc43)cc2OC(C)C)c1', '< 5.00'),
  ('CC(C)Oc1cc(NC(=O)N2CCCc3cc(CN4CCN(C)CC4=O)c(C=O)nc32)ncc1C#Cc1ccccn1', '< 5.00');

Need pIC50 of CC(C)Oc1cc(NC(=O)N2CCCc3cc(CN4CCN(C)CC4=O)c(C=O)nc32)ncc1C#Cc1cccnc1 , thanks. < 5.00

Look up pIC50: COc1cc(CCc2cnc(NC(=O)N3CCCc4cc(CN5CCN(C)CC5=O)c(C=O)nc43)cc2OC(C)C)cc(OC)c1 < 5.00

Requested read-out: pIC50. Entry: COc1cc(C#Cc2cnc(NC(=O)N3CCCc4ccc(C=O)nc43)cc2OC(C)C)cc(OC)c1 < 5.00

Can you share its pIC50? I mean this molecule: C=CC(=O)Nc1cccc(C)c1Nc1ncc2cc(-c3c(Cl)c(OC)cc(OC)c3Cl)ccc2n1 < 5.00

Can you look up the measured pIC50 of COCCOc1cc(NC(=O)N2CCCc3ccc(C=O)nc32)ncc1C#Cc1ccccn1 for me? < 5.00

Fill in the blank: the reported pIC50 of COc1cc(OC)cc(-c2cnc(NC(=O)N3CCCc4ccc(C=O)nc43)cc2OC(C)C)c1 is ____. < 5.00

Which pIC50 is reported for this molecule? COCCOc1cc(NC(=O)N2CCCc3ccc(C=O)nc32)ncc1C#Cc1cccnc1 < 5.00

Data origin: ChEMBL document CHEMBL5046271
